Entry source: ChEMBL document CHEMBL1138247

subject_of_test: Integrin alpha-4/beta-1 (Homo sapiens, UniProt P05556+P13612)
Sequence (P05556 whole entry): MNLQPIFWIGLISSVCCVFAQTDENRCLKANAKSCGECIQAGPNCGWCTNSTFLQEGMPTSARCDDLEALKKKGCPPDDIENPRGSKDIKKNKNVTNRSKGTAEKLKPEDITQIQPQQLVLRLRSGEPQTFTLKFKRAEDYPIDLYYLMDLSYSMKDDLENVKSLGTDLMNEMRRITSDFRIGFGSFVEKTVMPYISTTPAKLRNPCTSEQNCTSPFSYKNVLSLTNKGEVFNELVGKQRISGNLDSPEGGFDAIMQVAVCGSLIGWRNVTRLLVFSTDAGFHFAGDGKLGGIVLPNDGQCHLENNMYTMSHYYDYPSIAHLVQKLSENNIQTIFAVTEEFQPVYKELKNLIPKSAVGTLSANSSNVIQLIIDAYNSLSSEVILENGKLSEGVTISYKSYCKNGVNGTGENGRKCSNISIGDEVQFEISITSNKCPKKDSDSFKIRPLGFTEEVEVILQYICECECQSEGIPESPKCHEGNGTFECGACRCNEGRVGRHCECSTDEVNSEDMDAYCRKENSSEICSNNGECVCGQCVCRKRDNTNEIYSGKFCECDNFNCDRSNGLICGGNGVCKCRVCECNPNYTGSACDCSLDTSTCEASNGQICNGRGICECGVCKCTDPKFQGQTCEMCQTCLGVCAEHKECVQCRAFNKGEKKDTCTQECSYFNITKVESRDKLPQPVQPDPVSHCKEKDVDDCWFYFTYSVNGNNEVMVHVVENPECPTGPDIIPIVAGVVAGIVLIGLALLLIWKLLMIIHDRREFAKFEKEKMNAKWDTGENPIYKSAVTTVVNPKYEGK
Sequence (P13612 whole entry): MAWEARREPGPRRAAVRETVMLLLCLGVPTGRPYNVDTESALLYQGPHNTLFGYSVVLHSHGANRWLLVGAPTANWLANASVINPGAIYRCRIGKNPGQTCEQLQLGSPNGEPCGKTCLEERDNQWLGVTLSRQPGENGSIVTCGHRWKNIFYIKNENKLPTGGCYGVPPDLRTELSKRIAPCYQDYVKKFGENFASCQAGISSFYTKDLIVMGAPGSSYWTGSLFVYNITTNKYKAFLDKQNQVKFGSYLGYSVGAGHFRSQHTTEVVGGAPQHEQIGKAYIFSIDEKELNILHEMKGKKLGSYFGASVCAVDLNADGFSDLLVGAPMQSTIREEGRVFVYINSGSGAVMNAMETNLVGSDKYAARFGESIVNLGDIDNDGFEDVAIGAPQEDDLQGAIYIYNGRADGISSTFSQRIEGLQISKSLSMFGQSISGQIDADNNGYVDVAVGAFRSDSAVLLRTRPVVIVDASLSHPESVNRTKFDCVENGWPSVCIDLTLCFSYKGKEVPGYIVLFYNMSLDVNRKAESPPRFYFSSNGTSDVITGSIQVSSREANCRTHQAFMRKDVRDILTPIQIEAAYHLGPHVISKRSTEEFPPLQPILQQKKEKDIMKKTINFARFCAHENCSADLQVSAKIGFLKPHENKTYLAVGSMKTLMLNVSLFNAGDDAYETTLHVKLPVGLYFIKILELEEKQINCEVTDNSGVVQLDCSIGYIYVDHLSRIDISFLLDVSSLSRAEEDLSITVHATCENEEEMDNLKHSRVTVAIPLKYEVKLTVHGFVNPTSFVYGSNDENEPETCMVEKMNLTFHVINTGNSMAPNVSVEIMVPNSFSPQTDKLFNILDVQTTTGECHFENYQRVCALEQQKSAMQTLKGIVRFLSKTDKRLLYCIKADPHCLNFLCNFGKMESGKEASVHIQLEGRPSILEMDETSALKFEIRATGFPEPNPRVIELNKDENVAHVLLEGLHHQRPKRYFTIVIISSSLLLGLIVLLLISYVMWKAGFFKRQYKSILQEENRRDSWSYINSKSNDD
experiment_description: Inhibition of integrin alpha4beta1 receptor-mediated human Molt-4 cell adhesion to CS1 peptide
pIC50: −log10 of the molar value.

{"chemical_string": "NC(=O)C1(NC(=O)[C@@H](CCCC(=O)O)NC(=O)[C@@H](CCCCNC(=O)/C=C/c2cccnc2)NC(=O)Cc2ccc(Nc3nc4ccccc4[nH]3)cc2)CCCCC1", "pIC50": 9.52}
{"chemical_string": "NC(=O)C1(NC(=O)[C@@H](CCCC(=O)O)NC(=O)[C@@H](CCCCNC(=O)/C=C/c2cccnc2)NC(=O)c2ccc(Nc3nc4ccccc4[nH]3)cc2)CCCCC1", "pIC50": 6.38}
{"chemical_string": "Cc1cccc2[nH]c(Nc3ccc(C(=O)N[C@H](CCCCNC(=O)/C=C/c4cccnc4)C(=O)N[C@H](CCCC(=O)O)C(=O)NC4(C(N)=O)CCCCC4)cc3)nc12", "pIC50": 6.18}

* * *

Listed compounds paired with reported logP
experiment_description: Partition coefficient, log P of the compound
Format: physicochemical
condition_context: octanol/water

{"compound": "CC(C(=O)N[C@H](CCCCNC(=O)/C=C/c1cccnc1)C(=O)N[C@H](CCCC(=O)O)C(=O)NC1(C(N)=O)CCCCC1)c1ccc(Nc2nc3ccccc3[nH]2)cc1 (stereo partly drawn)", "logP": 2.63}
{"compound": "NC(=O)C1(NC(=O)[C@@H](CCCC(=O)O)NC(=O)[C@@H](CCCCNC(=O)/C=C/c2cccnc2)NC(=O)c2ccc(Nc3nc4ccccc4[nH]3)cc2)CCCCC1", "logP": 1.83}
{"compound": "Cc1cccc2[nH]c(Nc3ccc(CC(=O)N[C@H](CCCCNC(=O)/C=C/c4cccnc4)C(=O)N[C@H](CCCC(=O)O)C(=O)NC4(C(N)=O)CCCCC4)cc3)nc12", "logP": 2.58}
{"compound": "NC(=O)C1(NC(=O)[C@@H](CCCC(=O)O)NC(=O)[C@@H](CCCCNC(=O)/C=C/c2cccnc2)NC(=O)c2cccc(Nc3nc4ccccc4[nH]3)c2)CCCCC1", "logP": 2.12}
{"compound": "NC(=O)C1(NC(=O)[C@@H](CCCC(=O)O)NC(=O)[C@@H](CCCCNC(=O)/C=C/c2cccnc2)NC(=O)CCc2ccc(Nc3nc4ccccc4[nH]3)cc2)CCCCC1", "logP": 2.8}
{"compound": "NC(=O)C1(NC(=O)[C@@H](CCCC(=O)O)NC(=O)[C@@H](CCCCNC(=O)/C=C/c2cccnc2)NC(=O)Cc2ccc(Nc3nc4ccccc4[nH]3)cc2)CCCCC1", "logP": 2.23}
{"compound": "NC(=O)C1(NC(=O)[C@@H](CCCC(=O)O)NC(=O)[C@@H](CCCCNC(=O)/C=C/c2cccnc2)NC(=O)Cc2ccc(Nc3nc4cc(Br)ccc4[nH]3)cc2)CCCCC1", "logP": 1.96}
{"compound": "Cc1cccc2[nH]c(Nc3ccc(C(=O)N[C@H](CCCCNC(=O)/C=C/c4cccnc4)C(=O)N[C@H](CCCC(=O)O)C(=O)NC4(C(N)=O)CCCCC4)cc3)nc12", "logP": 1.86}

* * *

Measured pIC50 accompanies every entry in the list below.
subject_of_test: Integrin alpha-4/beta-1 (Homo sapiens, UniProt P05556+P13612)
experiment_description: Inhibition of integrin alpha4beta1 receptor-mediated human Molt-4 cell adhesion to CS1 peptide
pIC50: −log10 of the molar value.

{"compound": "NC(=O)C1(NC(=O)[C@@H](CCCC(=O)O)NC(=O)[C@@H](CCCCNC(=O)/C=C/c2cccnc2)NC(=O)Cc2ccc(Nc3nc4cc(Br)ccc4[nH]3)cc2)CCCCC1", "pIC50": 6.47}
{"compound": "Cc1cccc2[nH]c(Nc3ccc(CC(=O)N[C@H](CCCCNC(=O)/C=C/c4cccnc4)C(=O)N[C@H](CCCC(=O)O)C(=O)NC4(C(N)=O)CCCCC4)cc3)nc12", "pIC50": 7.56}
{"compound": "NC(=O)C1(NC(=O)[C@@H](CCCC(=O)O)NC(=O)[C@@H](CCCCNC(=O)/C=C/c2cccnc2)NC(=O)CCc2ccc(Nc3nc4ccccc4[nH]3)cc2)CCCCC1", "pIC50": 6.46}
{"compound": "NC(=O)C1(NC(=O)[C@@H](CCCC(=O)O)NC(=O)[C@@H](CCCCNC(=O)/C=C/c2cccnc2)NC(=O)c2cccc(Nc3nc4ccccc4[nH]3)c2)CCCCC1", "pIC50": 6.73}
{"compound": "CC(C(=O)N[C@H](CCCCNC(=O)/C=C/c1cccnc1)C(=O)N[C@H](CCCC(=O)O)C(=O)NC1(C(N)=O)CCCCC1)c1ccc(Nc2nc3ccccc3[nH]2)cc1 (stereo not given in full)", "pIC50": 6.35}
